Molecular target: recombinant autotaxin (Homo sapiens)
Construct: made in house; host or cells: Hi5 insect cells (baculovirus)
Test: Autotaxin test (enzyme test), Amplex Red fluorescence with LPC substrate
Format: biochemical
Conditions: 10 μM compound; autotaxin inhibition (enzyme test); read-out: % Control at 10 μM
So basically: is remaining activity at 10 µM under 10%? Then YES. Not under? Then NO.

Is remaining activity at 10 µM strictly under 10% for the entry CC(C)(CC(=O)O)CC(=O)N1CCN2C(=O)c3cc(-c4ccc(Cl)cc4)ccc3NC(=O)[C@H]2C1 ?
NO

# strict comparison: is reported remaining activity at 10 µM < 10%? input = COC[C@H](N)C(=O)N1CCN2C(=O)c3cc(-c4ccc(Cl)cc4F)ccc3NC(=O)[C@H]2C1
NO

A record lists CC(C)(C)CC(=O)N1CCN2C(=O)c3cc(-c4ccccc4)ccc3NC(=O)C2C1 (stereo not drawn) . Is its remaining activity at 10 µM below 10%?
NO

Given the entry CC(C)(C)CC(=O)N1CCN2C(=O)c3cc(-c4ccc(Cl)nc4)ccc3NC(=O)C2C1 (stereo not drawn) , would its reported remaining activity at 10 µM be below 10%?
NO

Field: below-cutoff. Rule: recorded remaining activity at 10 µM strictly less than 10%. Subject: CC(C)(C)CC(=O)N1CCN2C(=O)c3cc(-c4ccc(Cl)cc4F)ccc3NC(=O)[C@H]2C1
NO

Please state whether remaining activity at 10 µM is below 10% for CC(C)(C)CC(=O)N1CCN2C(=O)c3cc(-c4ccc(Cl)c(Cl)c4)ccc3NC(=O)C2C1 (stereo not drawn)
YES

Is remaining activity at 10 µM of CC(C)(C)[C@H](N)C(=O)N1CCN2C(=O)c3cc(-c4ccc(Cl)cc4F)ccc3NC(=O)[C@@H]2C1 strictly below 10%?
YES

Consider O=C1Nc2ccc(-c3cccs3)cc2C(=O)N2CCN(C(=O)CO)C[C@H]12 . Does its remaining activity at 10 µM lie strictly below 10%?
NO

Given the entry CC(C)(C)CC(=O)N1CCN2C(=O)c3cc(-c4ccc(Cl)cc4F)ccc3N(CC(N)=O)C(=O)C2C1 (stereo not drawn) , would its reported remaining activity at 10 µM be below 10%?
YES

Item O=C1Nc2ccc(-c3ccc(Cl)cc3)cc2C(=O)N2CCN(C(=O)C3CCCN3C(=O)Nc3ccc(Cl)cc3)CC12 (stereo not drawn) : remaining activity at 10 µM beneath 10%, strictly?
YES

Problem: For the compound O=C1Nc2ccc(-c3ccc(Cl)cc3)cc2C(=O)N2CCN(C(=O)C3CSC(c4ccncc4)N3)CC12 (stereo not drawn) , is remaining activity at 10 µM under 10%?
YES

Take the compound O=C1Nc2ccc(-c3ccccc3F)cc2C(=O)N2CCN(C(=O)c3ccccn3)CC12 (stereo not drawn) and say whether its remaining activity at 10 µM is less than 10%.
NO

Could you please tell me whether remaining activity at 10 µM recorded for CC(C)(C)[C@H](N)C(=O)N1CCN2C(=O)c3cc(-c4ccc(Cl)cc4)ccc3NC(=O)[C@@H]2C1 is less than 10%?
NO

Input CC(C)(C)CC(=O)N1CCN2C(=O)c3cc(-c4ccc(Cl)cc4F)ccc3N(CCO)C(=O)[C@@H]2C1 ; condition: remaining activity at 10 µM strictly below 10%. Does it hold?
YES

Bench note: check whether O=C1Nc2ccc(-c3ccc(Cl)cc3)cc2C(=O)N2CCN(C(=O)Nc3ccccc3)CC12 (stereo not drawn) shows remaining activity at 10 µM below 10%
NO
